Test system: S6 Ribosomal Protein phosphorylation Ser235/236 in TSC1 null mouse embryo fibroblast (MEF) cells
protocol description: Reverse protein array, S6 Ribosomal Protein phosphorylation in TSC1 null MEF cells
Assay type: cell-based
particulars: 1 h, TSC1-/- MEFs, 60 minutes, read-out: p-S6 IC50
metric name: log10 IC50 (log10 of the value in nM)

1. COC1CCN(c2ccc(-n3c(=O)n(C)c4cnc5ccc(-c6cncc(C(C)(C)O)c6)cc5c43)c(C)n2)C1 (centres unmarked) [Example 28.1]    0.00
2. COc1ncc(-c2ccc3ncc4c(c3c2)n(-c2ccc(C(C)(C)O)nc2C)c(=O)n4C)c(OC)n1 [Example 31.3]    0.00
3. CCNc1cc(-c2ccc3ncc4c(c3c2)n(-c2ccc(N(C)CC)nc2C)c(=O)n4C)cnc1C [Example 12.2]    0.48
4. COCc1ncc(-c2ccc3ncc4c(c3c2)n(-c2ccc(F)nc2C)c(=O)n4C)cc1OC [Example 7.7]    2.05
5. CNc1ccc(-c2ccc3ncc4c(c3c2)n(-c2ccc(OCCOC)nc2C)c(=O)n4C)cn1 [Example 13.3]    0.48
6. CCNc1ncc(-c2ccc3ncc4c(c3c2)n(-c2ccc(N3CC[C@@H](O)C3)nc2C)c(=O)n4C)cc1C(F)(F)F [Example 34.2]    0.28
7. Cc1nc(C(F)(F)F)ccc1-n1c(=O)n(C)c2cnc3ccc(-c4cncc(C(C)(C)O)c4)cc3c21 [Example 33.1]    0.30
8. COc1cc(-c2ccc3ncc4c(c3c2)n(-c2ccc(N3CC(O)C3)nc2C)c(=O)n4C)cnc1CO [Example 29.5]    1.59
9. COCCN(C)c1ccc(-n2c(=O)n(C)c3cnc4ccc(-c5cncc(N)c5)cc4c32)c(C)n1 [Example 15.8]    0.78
10. CNc1ccc(-c2ccc3ncc4c(c3c2)n(-c2ccc(N3CCCC3)nc2C)c(=O)n4C)cn1 [Example 25.1]    0.00
11. COc1cc(-c2ccc3ncc4c(c3c2)n(-c2ccc(F)nc2C)c(=O)n4C)cnc1CO [Example 7.10]    1.18
12. CNc1cc(-c2ccc3ncc4c(c3c2)n(-c2ccc(N(C)C)nc2C)c(=O)n4C)cnc1C [Example 19.2]    0.04
13. Cc1nc(F)ccc1-n1c(=O)n(C)c2cnc3ccc(-c4cncc(C(C)(C)O)c4)cc3c21 [Example 7.8]    1.00
14. COCCOc1ccc(-n2c(=O)n(C)c3cnc4ccc(-c5cnc(N)c(C(F)(F)F)c5)cc4c32)c(C)n1 [Example 13.2]    0.00
15. CNc1ncc(-c2ccc3ncc4c(c3c2)n(-c2ccc(OC)nc2Cl)c(=O)n4C)cn1 [Example 18.2]    0.00
